biological target: IL17-RE-IL-17C (Homo sapiens, UniProt Q8NFR9+Q9P0M4); test: Inhibition of IL-17C/IL-17RE interaction (unknown origin) incubated for 1.5 hrs by ELISA method
Sequence (Q9P0M4 whole entry): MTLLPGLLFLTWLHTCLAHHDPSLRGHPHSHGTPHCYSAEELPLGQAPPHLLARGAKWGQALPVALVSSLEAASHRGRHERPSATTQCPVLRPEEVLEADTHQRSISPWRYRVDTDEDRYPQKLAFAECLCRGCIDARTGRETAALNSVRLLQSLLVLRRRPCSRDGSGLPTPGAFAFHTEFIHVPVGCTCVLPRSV
Sequence (Q8NFR9 whole entry): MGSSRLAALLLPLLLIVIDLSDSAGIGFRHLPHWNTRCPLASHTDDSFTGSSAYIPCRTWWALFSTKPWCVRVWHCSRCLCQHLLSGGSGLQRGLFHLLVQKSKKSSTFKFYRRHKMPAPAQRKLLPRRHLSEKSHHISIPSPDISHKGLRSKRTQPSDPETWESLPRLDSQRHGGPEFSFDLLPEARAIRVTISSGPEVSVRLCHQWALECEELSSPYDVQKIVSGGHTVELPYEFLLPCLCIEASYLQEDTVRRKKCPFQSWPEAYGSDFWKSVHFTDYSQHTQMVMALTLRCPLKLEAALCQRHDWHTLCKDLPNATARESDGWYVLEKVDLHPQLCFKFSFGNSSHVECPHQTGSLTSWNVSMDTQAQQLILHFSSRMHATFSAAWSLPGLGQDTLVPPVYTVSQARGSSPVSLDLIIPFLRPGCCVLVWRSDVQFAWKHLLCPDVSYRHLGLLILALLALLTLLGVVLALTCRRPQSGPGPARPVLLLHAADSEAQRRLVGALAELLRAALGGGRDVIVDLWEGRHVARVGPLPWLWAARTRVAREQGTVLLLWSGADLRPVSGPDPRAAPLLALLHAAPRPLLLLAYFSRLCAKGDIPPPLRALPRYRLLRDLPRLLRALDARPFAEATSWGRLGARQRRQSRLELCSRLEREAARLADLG
Positions of bridges follow the written chain, without caps; N, C: chain ends. Residues, ends and D or L forms follow the SMILES beside them.
quantityName: IC50

1) CC(C)C[C@@H]1NC(=O)[C@H](CC(C)C)NC(=O)[C@H](CO)NC(=O)[C@H](CCC(=O)O)NC(=O)[C@H](CC(C)C)NC(=O)[C@H](Cc2ccc(O)cc2)NC(=O)CSC[C@@H](C(=O)NCC(N)=O)NC(=O)[C@H](Cc2ccc(O)cc2)NC(=O)[C@H](Cc2ccc(O)cc2)NC(=O)[C@H](CC(N)=O)NC(=O)[C@H](CC(N)=O)NC(=O)[C@H](CO)NC(=O)CNC1=O ({CH2CO}-YLESLLGSNNYYCG-NH2; thioether N-13) | > 30 µM
2) CC[C@H](C)[C@@H]1NC(=O)[C@H](CCCNC(=N)N)NC(=O)[C@H](Cc2ccc(O)cc2)NC(=O)[C@H](Cc2ccc(O)cc2)NC(=O)[C@H](Cc2c[nH]cn2)NC(=O)[C@H](C)NC(=O)[C@H](Cc2ccc(O)cc2)NC(=O)CSC[C@@H](C(=O)NCC(N)=O)NC(=O)CNC(=O)[C@H](CC(C)C)NC(=O)[C@H](CCC(=O)O)NC(=O)CNC(=O)[C@H](Cc2ccc(O)cc2)NC(=O)[C@H](CC(C)C)NC1=O ({CH2CO}-YAHYYRILYGELGCG-NH2; thioether N-14) | > 30 µM
3) CC(C)C[C@@H]1NC(=O)[C@H](CC(N)=O)NC(=O)CNC(=O)[C@H](Cc2ccc(O)cc2)NC(=O)[C@H](CC(C)C)NC(=O)[C@H](CO)NC(=O)[C@H](C(C)C)NC(=O)[C@H](Cc2ccc(O)cc2)NC(=O)[C@H](Cc2ccc(O)cc2)NC(=O)[C@H](CCC(N)=O)NC(=O)[C@H](Cc2c[nH]cn2)NC(=O)[C@H](Cc2ccc(O)cc2)NC(=O)CSC[C@@H](C(=O)NCC(N)=O)NC(=O)CNC1=O ({CH2CO}-YHQYYVSLYGNLGCG-NH2; thioether N-14) | 0.0104 µM

----------
molecular target: IL17-RE-IL-17C (Homo sapiens, UniProt Q8NFR9+Q9P0M4); test: Inhibition of IL-17C/IL-17RE interaction (unknown origin) incubated for 1.5 hrs by ELISA method
Positions of bridges follow the written chain, without caps; N, C: chain ends. Residues, ends and D or L forms follow the SMILES beside them.
quantityName: IC50 (nM)

1. CC[C@H](C)[C@@H]1NC(=O)[C@H](CCCNC(=N)N)NC(=O)[C@H](Cc2ccc(O)cc2)NC(=O)[C@H](Cc2ccc(O)cc2)NC(=O)[C@H](Cc2c[nH]cn2)NC(=O)[C@H](Cc2c[nH]cn2)NC(=O)[C@H](Cc2ccc(O)cc2)NC(=O)CSC[C@@H](C(=O)NCC(N)=O)NC(=O)CNC(=O)[C@H](CC(C)C)NC(=O)[C@H](CCC(=O)O)NC(=O)[C@H](C)NC(=O)[C@H](Cc2ccc(O)cc2)NC(=O)[C@H](CC(C)C)NC1=O ({CH2CO}-YHHYYRILYAELGCG-NH2; thioether N-14) | 1360
2. CC[C@H](C)[C@@H]1NC(=O)[C@H](CCCNC(=N)N)NC(=O)[C@H](Cc2ccc(O)cc2)NC(=O)[C@H](Cc2ccc(O)cc2)NC(=O)[C@H](Cc2c[nH]cn2)NC(=O)[C@H](Cc2c[nH]cn2)NC(=O)[C@H](Cc2ccc(O)cc2)NC(=O)CSC[C@@H](C(=O)NCC(N)=O)NC(=O)CNC(=O)[C@H](CC(C)C)NC(=O)CNC(=O)CNC(=O)[C@H](Cc2ccc(O)cc2)NC(=O)[C@H](CC(C)C)NC1=O ({CH2CO}-YHHYYRILYGGLGCG-NH2; thioether N-14) | 211
